biological target: Av-DHDPR (Trichormus variabilis, UniProt Q3MFY8); construct: synthetic codon-optimised dapB in pRSET-A, His-tagged, E. coli BL21-DE3 pLysS, IMAC; homotetramer 139 kDa; monomer of 287 residues in crystal; assay: microscale thermophoresis, label-free, single-site fit
Sequence (Q3MFY8 2-278): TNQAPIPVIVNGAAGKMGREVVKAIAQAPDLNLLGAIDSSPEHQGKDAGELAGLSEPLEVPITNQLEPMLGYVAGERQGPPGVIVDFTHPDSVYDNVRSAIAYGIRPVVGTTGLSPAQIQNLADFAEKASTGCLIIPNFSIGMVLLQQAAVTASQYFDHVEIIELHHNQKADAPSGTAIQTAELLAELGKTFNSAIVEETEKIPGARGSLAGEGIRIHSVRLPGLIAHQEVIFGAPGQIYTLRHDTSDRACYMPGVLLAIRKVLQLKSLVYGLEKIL
METRIC: pKd
Entry type: numeric. Quantity: pKd, the -log10 of concentration in molar units.

[in] // returns reported pKd for input O=C(O)c1cccc(C(=O)O)n1 [2,6-pyridinedicarboxylate]
[out] 4.00

----------
Biological target: Ec-DHDPS (Escherichia coli, UniProt P0A6L2)
Sequence (P0A6L2 1-292): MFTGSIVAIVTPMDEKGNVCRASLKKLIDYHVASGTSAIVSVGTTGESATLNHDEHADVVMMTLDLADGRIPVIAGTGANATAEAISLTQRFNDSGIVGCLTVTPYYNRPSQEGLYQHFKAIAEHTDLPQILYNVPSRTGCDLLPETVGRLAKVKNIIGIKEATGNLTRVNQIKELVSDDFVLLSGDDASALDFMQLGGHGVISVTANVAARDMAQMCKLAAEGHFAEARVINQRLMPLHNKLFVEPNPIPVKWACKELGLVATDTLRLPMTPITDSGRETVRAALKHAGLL
METRIC: pIC50
Entry type: numeric. Quantity: pIC50, the -log10 of concentration in molar units.

[in] // returns reported pIC50 for input NCCCC[C@H](N)C(=O)O [(S)-lysine]
[out] 3.68
